Test system: LoVo
Test: In vitro antiproliferative activity against human LOVO colon cell line
Type: functional
Measured GI50 by item
MEASUREMENT NAME: GI50 (nM)

GIVEN SMILES	MEASURED NUMBER
CCOc1ccc(-c2n[n+]3c(C)cccc3c3ccc4ccccc4c23)cc1	1000
CCOc1ccc(-c2n[n+]3ccccc3c3ccc4ccccc4c23)cc1	2900
CCOc1ccc(-c2n[n+]3c4ccc(C)cc4ccc3c3ccc4ccccc4c23)cc1	300
Cc1cccc2c3ccc4ccccc4c3c(-c3ccccc3)n[n+]12	3000
CCOc1ccc(-c2n[n+]3c4ccccc4ccc3c3ccc4ccccc4c23)cc1	6300
Cc1ccc2c(ccc3c4ccc5ccccc5c4c(-c4ccccc4)n[n+]23)c1	400
c1ccc(-c2n[n+]3c4ccccc4ccc3c3ccc4ccccc4c23)cc1	600
COc1cccc2c1C(=O)c1c(O)c3c(c(O)c1C2=O)C[C@@](O)(C(=O)CO)C[C@@H]3O[C@H]1C[C@H](N)[C@H](O)[C@H](C)O1	10
